System: Tankyrases
condition-info: read-out: EC50 [M] TNKS cellular assay; DLD1 cells, 24 hours, Axin2 increase

{"columns": ["smi", "EC50, M"],
 "data": [
  ["Cn1ncc2c(=O)[nH]c(CCCC(=O)N3CCC(C(=O)c4ccc(F)c(F)c4)CC3)nc21", "2.5e-08"],
  ["COc1ccc(C(=O)C2CCN(C(=O)CCCc3nn4cc(C)cc4c(=O)[nH]3)CC2)cc1", "5.4e-09"],
  ["Nc1ncc(C2CCN(C(=O)CCCc3nn4cccc4c(=O)[nH]3)CC2)cc1-c1ncccn1", "3.4e-09"],
  ["COc1ccc(C(=O)C2CCN(C(=O)CCCc3nc(C)c(C)c(=O)[nH]3)CC2)cn1", "3.5e-08"],
  ["N#Cc1ccc(OC2CCN(C(=O)CCCc3nn4cc(F)cc4c(=O)[nH]3)CC2)cc1", "7.8e-07"],
  ["Cc1cc2c(=O)[nH]c(CCCC(=O)N3CCC(C(=O)c4cnn(C)c4)CC3)cn2n1", "1e-08"],
  ["Cc1ncc2c(=O)[nH]c(CCCC(=O)N3CCC(C(=O)c4cnn(C)c4)CC3)cn12", "3.9e-07"],
  ["Cc1cc2c(=O)[nH]c(CCCC(=O)N3CCC(c4nnc(-c5ccccc5)o4)CC3)nn2c1", "5e-07"]
]}
